tested on: Nucleic Acid; assay: In vitro binding affinity to rat liver microsome-mediated AFB1-DNA using [3H]- AFB1 radioligand assay at concentration of 10 uM; type: microsomes
Entries whose Binding (pM 30min-1 (mg of DNA)-1) is below 100 take Satisfied; entries at or above 100 take Not satisfied.

| Structure | Group |
| --- | --- |
| C=CCC1=C[C@]2(OC)[C@H](C)[C@@H](c3ccc4c(c3)OCO4)O[C@]2(OC)CC1=O | Not satisfied |
| C=CCC1=C[C@@](OC)([C@H](C)Cc2ccc3c(c2)OCO3)C(OC)=CC1=O | Not satisfied |
| O=C(/C=C/C=C/c1ccc2c(c1)OCO2)N1CCCCC1 | Satisfied |
| C=CCC1=C[C@]2(OC)[C@H](C)[C@@H](c3ccc4c(c3)OCO4)O[C@]2(OC)C[C@@H]1O | Satisfied |

Task: Given the entry COC(=O)/C=C/C=C/c1ccc2c(c1)OCO2 , would its reported Binding (pM 30min-1 (mg of DNA)-1) be below 100?
Result: Not satisfied

Task: In the record for c1cc2c(cc1[C@H]1OC[C@H]3[C@@H]1CO[C@H]3c1ccc3c(c1)OCO3)OCO2 , is Binding (pM 30min-1 (mg of DNA)-1) less than 100?
Result: Not satisfied
